- Assayed Target: human CD33 P96A (human, UniProt P20138 18-364)
- Sequence (P20138 18-364 P96A limits assumed): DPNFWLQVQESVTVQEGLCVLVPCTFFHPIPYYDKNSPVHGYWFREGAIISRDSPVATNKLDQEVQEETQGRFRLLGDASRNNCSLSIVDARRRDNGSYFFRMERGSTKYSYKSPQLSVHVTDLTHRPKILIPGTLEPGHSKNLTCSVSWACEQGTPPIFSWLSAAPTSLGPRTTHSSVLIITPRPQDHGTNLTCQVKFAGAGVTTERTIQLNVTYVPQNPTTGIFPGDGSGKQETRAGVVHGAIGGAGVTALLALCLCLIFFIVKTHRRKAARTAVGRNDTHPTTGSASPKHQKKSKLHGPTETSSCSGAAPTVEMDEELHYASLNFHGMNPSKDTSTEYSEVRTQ
- Assay Procedure: flow cytometry on HEK293-T, alanine scan
Assay Metric: Mean % WT Binding (% WT binding)
Provide the reading as a plain figure in % WT binding.

Consider Refmab #1 (antibody, V domains shown, The alanine scan used IgG or Fab; also called hP67.6) VH: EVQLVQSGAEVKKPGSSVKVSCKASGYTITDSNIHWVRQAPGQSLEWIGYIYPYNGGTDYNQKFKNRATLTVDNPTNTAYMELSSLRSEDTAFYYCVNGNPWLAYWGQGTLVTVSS VL: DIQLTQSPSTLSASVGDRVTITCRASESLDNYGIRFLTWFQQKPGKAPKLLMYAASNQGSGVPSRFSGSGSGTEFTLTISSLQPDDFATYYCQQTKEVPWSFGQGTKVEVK . Its measured Mean % WT Binding is 84.9

Consider Refmab #4 (antibody, V domains shown, The alanine scan used IgG or Fab) VH: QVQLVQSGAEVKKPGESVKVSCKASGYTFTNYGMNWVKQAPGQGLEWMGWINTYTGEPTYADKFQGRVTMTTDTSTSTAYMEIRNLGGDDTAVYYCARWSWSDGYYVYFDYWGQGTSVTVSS VL: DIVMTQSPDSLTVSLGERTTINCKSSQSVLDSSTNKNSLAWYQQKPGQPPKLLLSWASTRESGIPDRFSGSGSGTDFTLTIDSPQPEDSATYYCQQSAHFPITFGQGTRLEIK . Its measured Mean % WT Binding is 27.4

Consider Refmab #2 (antibody, V domains shown, The alanine scan used IgG or Fab) VH: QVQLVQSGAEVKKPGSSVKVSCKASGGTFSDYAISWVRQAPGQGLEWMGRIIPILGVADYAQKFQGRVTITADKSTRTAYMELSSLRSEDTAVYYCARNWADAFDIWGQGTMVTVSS VL: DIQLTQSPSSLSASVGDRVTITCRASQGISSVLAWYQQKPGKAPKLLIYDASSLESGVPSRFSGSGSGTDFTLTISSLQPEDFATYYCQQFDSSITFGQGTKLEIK . Its measured Mean % WT Binding is 102

Consider Refmab #3 (antibody, V domains shown, The alanine scan used IgG or Fab) VH: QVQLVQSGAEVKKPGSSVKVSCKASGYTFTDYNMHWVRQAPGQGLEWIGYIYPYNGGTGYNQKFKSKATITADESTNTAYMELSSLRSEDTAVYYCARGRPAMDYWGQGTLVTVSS VL: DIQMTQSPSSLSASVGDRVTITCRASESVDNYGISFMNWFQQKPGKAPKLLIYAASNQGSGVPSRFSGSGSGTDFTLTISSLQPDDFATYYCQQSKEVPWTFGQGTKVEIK . Its measured Mean % WT Binding is 140

Recorded values, source patent US20260242735A1.
